Experiment: Volume of distribution in CD-1 mouse at 1 mg/kg, iv measured for 24 hrs by UPLC-MS/MS analysis
Type: ADME, organism-based
Conditions: in vivo
PROPERTY: Vd (L/kg)

                      smiles_representation  property  meas_value
0  COc1cc(C(=O)c2cc(O)cc(F)c2)cc([N+](=O)[O-])c1O        Vd        1.57

* * *

Test: Clearance in CD-1 mouse at 10 mg/kg, po measured for 24 hrs by UPLC-MS/MS analysis
Format: ADME, organism-based
Conditions: in vivo
PROPERTY: CL/F (mL/min/kg)

In [3]: df
Out[3]:
                                   compound  reading_unit  meas_value
0  COc1cc(C(=O)c2cc(O)cc(F)c2)cc([N+](=O)[O-])c1O     mL/min/kg        5.13
1  Cc1ccc(C(=O)c2cc(O)c(O)c([N+](=O)[O-])c2)cc1 [TOLCAPONE]     mL/min/kg        13.3

* * *

Assay: Cmax in CD-1 mouse at 1 mg/kg, iv measured for 24 hrs by UPLC-MS/MS analysis
Format: ADME, organism-based
Set-up: dose 1 mg/kg, time 24 hrs, route iv
Details: in vivo
PROPERTY: Cmax (ng/mL)

                      smiles_representation  reading_unit  meas_value
0  O=C(c1cc(O)cc(F)c1)c1cc(O)c(O)c([N+](=O)[O-])c1         ng/mL        1360
1  COc1cc(C(=O)c2cc(O)cc(F)c2)cc([N+](=O)[O-])c1O         ng/mL        4040

* * *

Target: Transthyretin (Homo sapiens, UniProt P02766, V50M)
Assay: Binding affinity to TTR V30M mutant (unknown origin) expressed in Escherichia coli BL21(DE3) assessed as dissociation constant by ITC analysis
pKd: −log10 of the molar value.
PROPERTY: pKd

In [3]: df
Out[3]:
                      smiles_representation  meas_value
0  COc1cc(C(=O)c2cc(O)cc(F)c2)cc([N+](=O)[O-])c1O        7.44

Where these numbers come from: ChEMBL document CHEMBL5335793
